biological target: Procathepsin L (Homo sapiens, UniProt P07711)
Endpoint label: pIC50
A value of pIC50 is the negative decimal logarithm of a concentration given in moles per litre.

Test system Procathepsin L (Homo sapiens, UniProt P07711); read-out pIC50; what value for CCCCCCC[C@H]1O[C@@H]1C(OC(=O)c1ccc(I)cc1)C(=O)NC1CCCCC1 (some centres not stated) ? 5.27

* * *

Target: Cathepsin K (Homo sapiens)
Sequence (P43235 whole entry): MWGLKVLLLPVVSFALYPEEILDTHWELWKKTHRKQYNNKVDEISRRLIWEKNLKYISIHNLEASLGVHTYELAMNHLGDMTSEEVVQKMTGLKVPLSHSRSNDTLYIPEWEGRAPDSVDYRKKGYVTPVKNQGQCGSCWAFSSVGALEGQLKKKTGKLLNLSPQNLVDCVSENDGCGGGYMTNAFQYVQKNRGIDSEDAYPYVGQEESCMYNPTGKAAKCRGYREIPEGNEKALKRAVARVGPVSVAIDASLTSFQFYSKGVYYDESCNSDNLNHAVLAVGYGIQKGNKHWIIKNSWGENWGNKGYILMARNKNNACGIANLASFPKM
Experiment: Binding affinity to recombinant human cathepsin K
Endpoint label: Ki (µM)

P. CCCCNC(=O)C([C@H]1O[C@@H]1c1ccccc1)N(C(=O)c1ccc(I)cc1)C(C)(C)C (some centres not stated)
Q. CCCCCCC[C@H]1O[C@@H]1C(OC(=O)c1ccc(I)cc1)C(=O)NCCCC (some centres not stated)
I need your help: which of the pair P , Q has higher Ki? Identify your pick by its label. P
(P: 9.57 µM, Q: 5.45 µM)

* * *

biological target: Cathepsin K (Homo sapiens); test: Inhibition of recombinant human cathepsin K using Z-Phe-Arg-MCA as fluorogenic substrate preincubated for 5 mins followed by substrate addition and measured after 5 mins by fluorimetric analysis
Endpoint label: IC50 (µM)

CCCCCCC[C@H]1O[C@@H]1C(OC(=O)CCCCCBr)C(=O)NC(C)(C)C (stereo partly specified)	3.81
CCCCCCC[C@H]1O[C@@H]1C(OC(=O)C1CCCCC1)C(=O)NC(C)(C)C (stereo partly specified)	7.6
CCCCNC(=O)C([C@H]1O[C@@H]1c1ccccc1)N(Cc1ccccc1)C(=O)c1ccccc1 (stereo partly specified)	18.5

A. CCCCNC(=O)C([C@H]1O[C@@H]1c1ccccc1)N(C(=O)c1ccc(I)cc1)C(C)(C)C (stereo partly specified)
B. CCCCCCC[C@H]1O[C@@H]1C(OC(=O)c1ccc(I)cc1)C(=O)NCCCC (stereo partly specified)
Of A and B , which shows the smaller IC50 value? Return value: the label identifying the chosen record. B
(B: 3.35 µM, A: 6.44 µM)

* * *

target: Procathepsin L (Homo sapiens); assay: Inhibition of cathepsin L (unknown origin) at 25 uM using fluorogenic Z-FR-MCA as substrate preincubated for 5 mins followed by substrate addition by spectrofluorimetric assay relative to control
Sequence (P07711 114-333 limits assumed): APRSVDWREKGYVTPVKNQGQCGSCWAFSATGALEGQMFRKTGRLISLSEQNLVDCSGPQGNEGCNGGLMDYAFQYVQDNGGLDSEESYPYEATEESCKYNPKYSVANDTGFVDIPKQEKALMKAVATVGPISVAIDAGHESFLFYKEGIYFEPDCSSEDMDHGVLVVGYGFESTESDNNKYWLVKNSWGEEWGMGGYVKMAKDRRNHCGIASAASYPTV
Endpoint label: inhibition (%)

CCCCCCC[C@H]1O[C@@H]1C(OC(=O)C1CCCCC1)C(=O)NC(C)(C)C (stereo not given in full)	0
CCCCNC(=O)C([C@H]1O[C@@H]1CC)N(Cc1ccccc1)C(=O)c1ccccc1 (stereo not given in full)	0

a. CCCCNC(=O)C([C@H]1O[C@@H]1c1ccccc1)N(Cc1ccccc1)C(=O)c1ccccc1 (stereo not given in full)
b. CCCCNC(=O)C([C@H]1O[C@@H]1c1ccccc1)N(C(=O)c1ccc(I)cc1)C(C)(C)C (stereo not given in full)
// which entry has the larger inhibition value, a or b ? // return label of chosen record b
(b: 30%, a: 0%)
